system_name: P-glycoprotein (ABCB1) (Homo sapiens)
Sequence (P08183 whole entry): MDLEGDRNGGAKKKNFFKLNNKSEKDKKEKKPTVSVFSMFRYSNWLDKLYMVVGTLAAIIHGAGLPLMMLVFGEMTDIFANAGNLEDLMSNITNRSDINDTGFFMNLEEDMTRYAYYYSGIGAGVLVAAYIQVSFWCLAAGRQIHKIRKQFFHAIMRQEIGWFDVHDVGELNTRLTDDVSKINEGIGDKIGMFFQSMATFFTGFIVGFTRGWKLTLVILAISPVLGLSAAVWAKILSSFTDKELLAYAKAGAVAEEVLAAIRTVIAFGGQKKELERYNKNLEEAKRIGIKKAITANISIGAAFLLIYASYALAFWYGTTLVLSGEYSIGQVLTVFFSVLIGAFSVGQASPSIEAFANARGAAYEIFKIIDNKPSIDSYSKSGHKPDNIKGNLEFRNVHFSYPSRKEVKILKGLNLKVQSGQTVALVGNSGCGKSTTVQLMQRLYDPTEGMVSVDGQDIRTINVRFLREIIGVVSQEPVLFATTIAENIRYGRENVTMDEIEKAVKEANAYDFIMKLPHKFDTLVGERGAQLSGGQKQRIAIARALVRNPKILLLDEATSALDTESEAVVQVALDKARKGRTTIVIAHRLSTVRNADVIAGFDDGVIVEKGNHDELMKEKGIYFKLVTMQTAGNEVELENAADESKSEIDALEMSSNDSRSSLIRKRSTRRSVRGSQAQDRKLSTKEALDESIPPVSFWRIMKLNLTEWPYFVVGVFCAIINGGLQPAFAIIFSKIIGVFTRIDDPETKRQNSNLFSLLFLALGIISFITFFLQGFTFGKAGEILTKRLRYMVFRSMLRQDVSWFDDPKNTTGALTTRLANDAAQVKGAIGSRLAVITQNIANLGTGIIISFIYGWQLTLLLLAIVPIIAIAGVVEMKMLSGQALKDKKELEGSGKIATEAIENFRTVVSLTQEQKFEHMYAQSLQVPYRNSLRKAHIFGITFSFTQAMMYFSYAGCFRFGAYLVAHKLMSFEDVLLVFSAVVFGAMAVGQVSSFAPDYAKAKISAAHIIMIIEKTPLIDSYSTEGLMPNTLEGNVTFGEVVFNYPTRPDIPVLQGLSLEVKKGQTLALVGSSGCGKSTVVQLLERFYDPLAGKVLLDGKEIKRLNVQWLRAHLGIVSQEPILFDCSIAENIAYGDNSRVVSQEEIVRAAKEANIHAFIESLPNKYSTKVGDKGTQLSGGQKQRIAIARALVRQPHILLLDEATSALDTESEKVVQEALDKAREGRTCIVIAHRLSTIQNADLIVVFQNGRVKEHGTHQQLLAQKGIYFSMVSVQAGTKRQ
assay_info: Inhibition of p-glycoprotein (unknown origin) expressed in human A2780Adr cells assessed as calcein-AM accumulation at 10 uM preincubated for 30 mins before calcein-AM addition measured up to 90 mins by fluorescence assay relative to control
Format: cell-based, A2780 ADR
condition_label: human A2780Adr cells expressing P-glycoprotein, probe calcein-AM
observed_property: inhibition at 1.5 h, 10 µM

Return reported inhibition at 1.5 h, 10 µM; argument: COc1ccc(-c2oc3c(ccc4ccccc43)c(=O)c2OC)cc1
< 25%

Return reported inhibition at 1.5 h, 10 µM; argument: COc1c(-c2ccccc2)oc2c(ccc3ccccc32)c1=O
< 25%

Return reported inhibition at 1.5 h, 10 µM; argument: COc1cc(-c2cc(=O)c3ccc4ccccc4c3o2)ccc1F
< 25%

Return reported inhibition at 1.5 h, 10 µM; argument: COc1cc(OC)c2c(=O)c(OC)c(-c3ccc(OC)c(OC)c3)oc2c1
> 25%
